System: T-47D spheroids with HUVEC/MSC, viability
experiment summary: Anticancer human tumor T-47D cell line growth inhibition [PI3K];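 also: spheroids exposed to agents for seven days before reading; percent of DMSO vehicle control luminescence so 100% = untreated growth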
condition: second compound 0.316 µM; first compound 0.1 µM; active compounds read low
Text: Combinatorial screen of targeted agents with the PI3K inhibitors inavolisib, alpelisib, duvelisib, and copanlisib in multi-cell type tumor spheroids A high-throughput screen of multi-cell type tumor spheroids was designed to identify active combinations of targeted small molecules and PI3K pathway inhibitors. […] Compounds. […] If the clinical Cmax for an agent had not been determined, the highest concentration tested was 10 microM. […]
Known viability, T/C of a selection of compounds
property: viability, T/C (%)

compound="CNC(=O)c1ccc(N2C(=S)N(c3ccc(C#N)c(C(F)(F)F)c3)C(=O)C2(C)C)cc1F + Cc1nc(NC(=O)N2CCCC2C(N)=O)sc1-c1ccnc(C(C)(C)C(F)(F)F)c1" obs_value=85
compound="C[C@@H](NC(=O)c1ncnc(N)c1Cl)c1ncc(C(=O)Nc2cc(C(F)(F)F)c(Cl)cn2)s1 + Cc1nc(NC(=O)N2CCCC2C(N)=O)sc1-c1ccnc(C(C)(C)C(F)(F)F)c1" obs_value=99.5
compound="C=CC(=O)N1CCN(c2nc(=O)n(-c3c(C)ccnc3C(C)C)c3nc(-c4c(O)cccc4F)c(F)cc23)C(C)C1 (stereo not drawn) + Cc1nc(NC(=O)N2CCCC2C(N)=O)sc1-c1ccnc(C(C)(C)C(F)(F)F)c1" obs_value=96

Data provenance is PubChem BioAssay AID1963959.
